The measured values listed here are drawn from PubChem BioAssay.

Catalogue of viability values
test: growth suppression of PTEN-deleted HCT116, pilot screen, cell-based, HCT116 clonal line, CellTiter-Glo (AID 824); conditions: 60 h, at 10 µM, hits give low values;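 also: 0% = 20 µM Hyamine control and 100% = vehicle cell control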
Results filed as inconclusive are left out.
Only the number, expressed in %, is required.

{"compound": "COC(=O)c1c(S(N)(=O)=O)c2ccccc2n1C", "viability, %": 102}
{"compound": "COc1ccc(C(=O)Nc2c(N)nc(SCC(=O)N3CCCCCC3)[nH]c2=O)cc1OC", "viability, %": 102}
{"compound": "CCC1CCCCN1Cc1nc2c(c(=O)n(C)c(=O)n2C)n1Cc1cccc2ccccc12 (stereo unspecified)", "viability, %": 83.1}
{"compound": "CCc1nnc(NC(=O)CCN2C(=O)CCC2=O)s1", "viability, %": 93.6}
{"compound": "O=C(OCN1C(=O)c2ccccc2C1=O)c1cccs1", "viability, %": 96.5}

Proceeding to the next compound to report its viability.
q: Give viability for O=C(CN1CC(c2ccccc2)CC1=O)Nc1ccc2c(c1)OCO2 (stereo unspecified)
a: 101

---

assay: inhibitors of the yeast RAM network, pilot screen, dse1pr::URA3 reporter, 5-FOA selection (AID 869);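 also: 0% = DMSO wells with no growth and 100% = 10 µM 1-NA-PP1 with full growth; RAM network block rescues cells from 5-FOA so hits raise OD615 growth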; conditions: S. cerevisiae dse1pr::URA3 5-FOA growth, OD615, 2 d; at 10 µM; hits give high values; strain carries analog-sensitive mutant Cbk1 kinase
Catalogue of inhibition values
Only the number, expressed in %, is required.

// worked examples, inhibition included
{"compound": "Cc1cccc(OCC2=N/C(=C\\N(C)C)C(=O)O2)c1", "inhibition, %": 1.48}
{"compound": "Cc1nc2ccc(N)cc2s1", "inhibition, %": 0.07}
{"compound": "CC(=O)n1c2ccccc2c2c1c1ccccc1n2C", "inhibition, %": 2.49}
{"compound": "CCOc1ccccc1NC(=O)C1CCC(CNc2c(N3CCOCC3)c(=O)c2=O)CC1 (stereo unspecified)", "inhibition, %": 1.43}

q: Give inhibition for `CCOC(=O)N1CCC(C(=O)Nc2ccc(OCC)cc2)CC1`
a: 0.495

q: Give inhibition for `CCCCNC(=O)c1ccc2nc(-c3ccco3)c(-c3ccco3)nc2c1`
a: 1.85

---

test: viability gain of MRP-1-high H69AR cells under doxorubicin, pilot screen, MRP-1 activator project, CellTiter-Glo, duplicate (AID 807); settings: H69AR viability with doxorubicin, CellTiter-Glo luminescence; at 10 µM; hits give high values;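 also: compound pretreatment 18-22 h then 72 h combined with doxorubicin; 0% = doxorubicin alone and 100% = vehicle without doxorubicin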
measure: viability increase (%)
Only the number, expressed in %, is required.

q: Give viability increase for `C=CCn1c(SCC(=O)N2CCOCC2)nc(O)c(Cc2ccccc2)c1=O`
a: 1.77

q: Give viability increase for `COC(=O)c1cc2c(s1)-c1ccccc1OC2`
a: -4.57

q: Give viability increase for O=C(NCC1CCCO1)c1ccc2c(c1)N(Cc1ccccc1)C(=O)CS2=O (centres undefined)
a: -0.66

q: Give viability increase for `Nc1cc(C(=O)c2cccs2)ccc1Cl`
a: -1.88

q: Give viability increase for Cc1c(C(=O)NCC2CCCO2)sc2nc(-c3ccc(F)cc3)cn12 (centres undefined)
a: 1.26

q: Give viability increase for `CCOC(=O)CSc1nccc(N(C)C)c1C#N`
a: 1.04

q: Give viability increase for `CCOC(=O)CSc1nc2sc(C(=O)O)c(C)c2c(=O)[nH]1`
a: -1.82

q: Give viability increase for `Cc1c(C(=O)Nc2ccc(F)cc2)oc2ccc(S(=O)(=O)N3CCCC3)cc12`
a: -2.04

q: Give viability increase for `COc1cc2[nH]c(=O)n(CCC(=O)NCc3cccnc3)c(=O)c2cc1OC`
a: -1.46

q: Give viability increase for `COc1ccc(NC(=O)C2CCN(C(=O)c3ccccc3)CC2)c(OC)c1`
a: -2.96

q: Give viability increase for `O=C(COc1ccc(F)cc1)Nc1nccs1`
a: 2.32

q: Give viability increase for `CCOC(=O)N1CCN(C(=O)c2cnn3ccccc23)CC1`
a: -1.3

q: Give viability increase for `Cc1ccc(F)cc1NC(=O)c1c(-c2ccccc2)noc1C`
a: -2.01
